This collection of values is drawn from patent US20260262643A1.

Documented Plant response rating, Kochia across a set of compounds
System: kochia
Assay: Test A preemergence
Assay type: in vivo, Bassia scoparia
Conditions: 125 g ai/ha, visual injury after 10 days, 0 to 100 scale, 0 is no effect, 100 is complete control
Excerpt: […]
Kindly provide the number alone.

Below are worked cases with known answers.
| smi | Plant response rating, Kochia |
| --- | --- |
| CCc1ncn(-c2cccc(C(=O)N3C[C@H](C)Oc4c(C)cccc43)c2)n1 | 80 |
| Cc1ccc(-n2cnc(C3CC3)n2)cc1C(=O)N1C[C@H](C)Oc2c(Cl)cccc21 | 80 |
| CC(C)Cc1ncn(-c2cccc(C(=O)N3C[C@H](C)Oc4c(Cl)cccc43)c2)n1 | 0 |
| CCOc1ccc(-n2cnc(C(C)C)n2)cc1C(=O)N1C[C@H](C)Oc2c(Cl)cccc21 | 50 |
| CCc1ncn(-c2ccc(CC)c(C(=O)N3C[C@H](C)Oc4c(Cl)cccc43)c2)n1 | 60 |

(Q) For CC(C)Oc1ccc(-n2cnc(C(C)C)n2)cc1C(=O)N1C[C@H](C)Oc2c(Cl)cccc21 , what is its reported Plant response rating, Kochia?
(A) 0

(Q) So what's the measured Plant response rating, Kochia for this one? Cc1ccc(-n2cnc(C(C)(C)C)n2)cc1C(=O)N1C[C@H](C)Oc2c(C)cccc21
(A) 90

(Q) Reported Plant response rating, Kochia, compound Cc1cccc2c1O[C@@H](C)CN2C(=O)c1cccc(-n2cncn2)c1F : ____
(A) 0

(Q) For the compound CCc1ncn(-c2ccc(C)c(C(=O)N3C[C@H](C)Oc4c(C)cccc43)c2)n1 , what Plant response rating, Kochia is on record?
(A) 80

(Q) Give the measured Plant response rating, Kochia of CC(C)c1ncn(-c2ccc(OC(F)(F)F)c(C(=O)N3C[C@H](C)Oc4c(Cl)cccc43)c2)n1 .
(A) 80

(Q) Can you look up the measured Plant response rating, Kochia of CCc1ccc(-n2cncn2)cc1C(=O)N1C[C@H](C)Oc2c(Cl)cccc21 for me?
(A) 20

(Q) Name the recorded Plant response rating, Kochia for Cc1ccc(-n2cncn2)cc1C(=O)N1C[C@H](C)Oc2c(C)cccc21 .
(A) 40
